Reference source for all entries: patent US10526323B2

molecular target: mGluR4 (UniProt Q14833); assay: mGluR4 potentiation assay: increase in response to an EC20 concentration of agonist (species not given); details: EC50 for potentiation of mGluR4; table does not state human or rat
pEC50: −log10 of the molar value.
quantity: pEC50

structure.string: Cc1ccccc1Cc1nn(C)c2cc(Nc3n[nH]c4nccnc34)ccc12
recorded.result: 5.34

(A) Cc1cc(COc2nn(C)c3cc(Nc4n[nH]c5cccnc45)ccc23)no1
(B) Cn1ncc2cc(Nc3n[nH]c4cccnc34)ccc21
(C) Cc1nn(C(=O)C(F)(F)F)c2ccc(Nc3n[nH]c4nccnc34)cc12
(D) Cn1nc(C(=O)N2CCOCC2)c2ccc(Nc3n[nH]c4cccnc34)cc21
(E) Clc1n[nH]c2ccc(Nc3n[nH]c4cccnc34)cc12
query: Falling order of pEC50, please. The labels, placed in the requested order, form the answer.
result: A, E, B, D, C
(A: 6.65, E: 6.34, B: 6.10, D: 5.80, C: 5.47)

* * *

Molecular target: mGluR4 (UniProt Q14833)
Test: mGluR4 potentiation assay: increase in response to an EC20 concentration of agonist (species not given)
Conditions: EC50 for potentiation of mGluR4; table does not state human or rat
From the text: The disclosed compounds and compositions can be evaluated for their ability to act as a potentiator of metabotropic glutamate receptor activity, in particular mGluR4 activity, by any suitable known methodology known in the art. […] The cells were loaded with either a Ca2+-sensitive fluorescent dye or the thallium responsive dye and the plates were washed and placed into a suitable kinetic plate reader. […]
quantity: EC50 (nM)

Recorded EC50, per entry:
compound: [2H]C([2H])(C)n1nc(C)c2cc(Nc3n[nH]c4nccnc34)ccc21
u: nM
EC50: 154
--
compound: Cc1nn(CCN2CCOCC2)c2ccc(Nc3n[nH]c4cccnc34)cc12
u: nM
EC50: 330
--
compound: Cc1cc(Cn2ncc3c(Nc4n[nH]c5cccnc45)cccc32)no1
u: nM
EC50: 571
--
compound: CCC(F)(F)Cn1nc(C)c2cc(Nc3n[nH]c4cccnc34)ccc21
u: nM
EC50: 253

(P) Cc1nnc(Cn2nc(C)c3cc(Nc4n[nH]c5cccnc45)ccc32)o1
(Q) Cc1nn(CC2CC(C(C)C)=NO2)c2ccc(Nc3n[nH]c4cccnc34)cc12 (stereo not drawn)
query: Looking at P and Q , which one comes out lower in EC50 terms? Which one? Tell me its label.
result: Q

(I) Cn1nc(OC2COC2)c2ccc(Nc3n[nH]c4cccnc34)cc21
(II) C=CCn1nc(C)c2cc(Nc3n[nH]c4cccnc34)ccc21
query: Given the two records I and II , choose the one whose EC50 value is lower. Provide the label of your selected option as the answer.
result: II

* * *

target: mGluR4 (UniProt Q14833); test: mGluR4 potentiation assay: increase in response to an EC20 concentration of agonist (species not given); settings: EC50 for potentiation of mGluR4; table does not state human or rat
quantity: EC50 (nM)

Answered examples (5):
molecule: CCCCCn1nc(C)c2cc(Nc3n[nH]c4cccnc34)ccc21
assay.target: mGluR4 (UniProt Q14833)
u: nM
EC50: 19
--
molecule: c1ccc2c(Nc3ccc4c(cnn4CC4CCC4)c3)n[nH]c2c1
assay.target: mGluR4 (UniProt Q14833)
u: nM
EC50: 51.4
--
molecule: Cn1nc(N2CC(C)(C3CC3)CC2=O)c2ccc(Nc3n[nH]c4ccccc34)cc21 (stereo not shown)
assay.target: mGluR4 (UniProt Q14833)
u: nM
EC50: 1420
--
molecule: Cc1nn(CC2CC2)c2ccc(Nc3n[nH]c4cccnc34)cc12
assay.target: mGluR4 (UniProt Q14833)
u: nM
EC50: 36
--
molecule: Cn1ncc2c(Cl)cc(Nc3n[nH]c4cccnc34)cc21
assay.target: mGluR4 (UniProt Q14833)
u: nM
EC50: 29

(A) Cc1nn(CC2CCC2)c2ccc(Nc3n[nH]c4nccnc34)cc12
(B) Cn1nc(C2(C)CC2)c2ccc(Nc3n[nH]c4ncccc34)cc21
query: EC50 comparison. Which is larger, A or B ? Mark your selection by writing its label.
result: A

(P) Cn1nc(C(=O)N2CCC(S(C)(=O)=O)C2)c2ccc(Nc3n[nH]c4cccnc34)cc21 (stereo not shown)
(Q) CC(C)Oc1nn(C)c2cc(Nc3n[nH]c4cccnc34)ccc12
(R) Cn1nc(OCc2ccncc2)c2ccc(Nc3n[nH]c4cccnc34)cc21
(S) Cn1ncc2c(Cl)cc(Nc3n[nH]c4nccnc34)cc21
(T) Cn1nc(Oc2ccc(C#N)cn2)c2ccc(Nc3n[nH]c4cccnc34)cc21
query: Ranking field: EC50; order: falling. Dear reader, please state the labels in the requested order.
result: P, Q, T, R, S

(I) Cn1nc(C#N)c2ccc(Nc3n[nH]c4cccnc34)cc21
(II) CC(C)Cn1nc(Cl)c2cc(Nc3n[nH]c4cccnc34)ccc21
(III) Cn1nc(C2CC2)c2ccc(Nc3n[nH]c4cccnc34)cc21
(IV) Cc1nn(CC2CC(F)(F)C2)c2ccc(Nc3n[nH]c4cccnc34)cc12
(V) CC(C)COc1nn(C)c2cc(Nc3n[nH]c4cccnc34)ccc12
query: Order the 5 molecules from highest to lowest EC50. Please respond with the labels ordered as the question requires.
result: II, IV, I, V, III

(P) CCC(F)(F)Cn1nc(C)c2cc(Nc3n[nH]c4ncccc34)ccc21
(Q) Cc1nn(C(C)C)c2ncc(Nc3n[nH]c4ccccc34)cc12
query: Pick the one with the larger EC50: P vs Q Identify your selection by its label.
result: Q
(Q: 2550 nM, P: 436 nM)

* * *

target: mGluR4 (UniProt Q14833); assay: mGluR4 potentiation assay: increase in response to an EC20 concentration of agonist (species not given); conditions: EC50 for potentiation of mGluR4; table does not state human or rat
quantity: EC50 (nM)

// known answers, use as guide
compound: Cc1cc(Cn2nc(C)c3cc(Nc4n[nH]c5nccnc45)ccc32)no1
u: nM
recorded.result: 145
--
compound: Cc1cc(Cn2nc(C)c3cc(Nc4n[nH]c5ncccc45)ccc32)no1
u: nM
recorded.result: 157
--
compound: Cn1nc(C(=O)NC2CCC2)c2ccc(Nc3n[nH]c4cccnc34)cc21
u: nM
recorded.result: 653
--
compound: Cc1cc(Cn2nc(C)c3cc(Nc4n[nH]c5ccccc45)ccc32)no1
u: nM
recorded.result: 129
--
compound: Cc1nn(C2CC2)c2ncc(Nc3n[nH]c4cccnc34)cc12
u: nM
recorded.result: 410

(P) Cc1nn(C)c2cc(Nc3n[nH]c4cccnc34)ccc12
(Q) CC1CCC(=O)N1c1nn(C)c2cc(Nc3n[nH]c4cccnc34)ccc12 (stereo not drawn)
query: Which of these two has the smaller recorded EC50: P or Q ? Pick one; state its label.
result: P
(P: 78 nM, Q: 4000 nM)

* * *

molecular target: mGluR4 (UniProt Q14833); experiment: mGluR4 potentiation assay: increase in response to an EC20 concentration of agonist (species not given); conditions: EC50 for potentiation of mGluR4; table does not state human or rat
pEC50: −log10 of the molar value.
quantity: pEC50

Observe how each entry below is paired with its result.
compound: Cc1nn(CCCCN2CCCCC2)c2ccc(Nc3n[nH]c4cccnc34)cc12 [Example 283]
recorded.result: 5.45
--
compound: Cn1nc(-c2ccc(=O)[nH]c2)c2ccc(Nc3n[nH]c4cccnc34)cc21 [Example 179]
recorded.result: 5.57
--
compound: Cn1nc(C(=O)N2CC[C@H](F)C2)c2ccc(Nc3n[nH]c4cccnc34)cc21 [Example 171]
recorded.result: 6.12
--
compound: Cn1nc(C(=O)N2CCC(F)(F)C2)c2ccc(Nc3n[nH]c4cccnc34)cc21 [Example 172]
recorded.result: 6.54

(1) Cc1nn(Cc2ccc3ccccc3n2)c2ccc(Nc3n[nH]c4cccnc34)cc12 [Example 125]
(2) Cn1cc2c(Cl)cc(Nc3n[nH]c4nccnc34)cc2n1 [Example 10]
(3) Cn1nc(OCC2CC2(F)F)c2ccc(Nc3n[nH]c4cccnc34)cc21 (stereo not drawn) [Example 188]
query: Rank ascending by pEC50. Labels, ranked as asked.
result: 1, 2, 3

* * *

target: mGluR4 (UniProt Q14833); assay: mGluR4 potentiation assay: increase in response to an EC20 concentration of agonist (species not given); settings: EC50 for potentiation of mGluR4; table does not state human or rat
quantity: EC50 (nM)

(I) Cc1nn(C2CCCCC2)c2ncc(Nc3n[nH]c4cccnc34)cc12 [Example 260]
(II) Cn1ncc2cc(Nc3n[nH]c4nccnc34)ccc21 [Example 84]
query: Given I and given II , which shows the smaller recorded EC50? Refer to your chosen item by its label in the answer.
result: I

(I) [2H]C([2H])([2H])n1nc(C)c2cc(Nc3n[nH]c4cccnc34)ccc21 [Example 123]
(II) Cn1nc(C2CC2)c2ccc(Nc3n[nH]c4ncccc34)cc21 [Example 13]
query: Quick one: lower EC50, I or II ? I would appreciate it if you answered with the label of your choice.
result: II
